Assay: NCI Yeast Anticancer Drug Screen. Data for the cln2 rad14 strain (AID 165);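 further: 0% = growth equal to vehicle treated cultures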
Details: S. cerevisiae cln2 rad14 strain, at 50.0 µM (retest, dose inferred, filed as 5.0)
This is part of a sample that, as a whole, favours compounds with a hit. Of some 79,000 tested, about 15% had one in any assay. Activity calls are given as the source filed them. No stated cut-off is given here; in the data, active means growth inhibition above about 70%; inactive means the rest.
Answer with one of the outcomes yes (1) for active, no (0) for inactive

Any idea what this test logged for COc1ccc(/C=C(\C)[N+](=O)[O-])cc1OC ?
yes (1)

Any idea what this test logged for C[CH2][Sn]([Br])([CH2]C)[c]1ccccc1CN(C)C ?
no (0)

Any idea what this test logged for [C-]#[O+].[C-]#[O+].[Mo].[N-]=Nc1ccc([N+](=O)[O-])cc1.[c-]1[c-][c-][cH-][c-]1 ?
no (0)

Any idea what this test logged for O=[N+]([O-])c1cc(-c2ccccc2)ccc1O ?
no (0)

Any idea what this test logged for NC(=O)c1cc([N+](=O)[O-])c(Cl)c([N+](=O)[O-])c1 ?
yes (1)

Any idea what this test logged for Cc1ccc(OP(=O)(Oc2ccc(C)cc2)Oc2ccc(C)cc2)cc1.Cc1ccc(OP(=O)(Oc2ccc(C)cc2)Oc2ccc(C)cc2)cc1.Cc1ccc(OP(=O)(Oc2ccc(C)cc2)Oc2ccc(C)cc2)cc1.Cc1ccc(OP(=O)(Oc2ccc(C)cc2)Oc2cccc(C)c2)cc1.[Cd+2].[O-][Cl+3]([O-])([O-])O ?
no (0)

Any idea what this test logged for ClCCN(CCCl)CCN1c2ccc3ccccc3c2Sc2ccc3ccccc3c21 ?
no (0)

Any idea what this test logged for Nc1nc(N)c(-c2ccc(Cl)c(Cl)c2)c(COc2ccc(CNC(=O)Nc3cccc(S(=O)(=O)F)c3)cc2Cl)n1 ?
no (0)

Any idea what this test logged for C/C1=C\[C@H](C)C[C@H](C)OC(=O)C[C@H](c2ccc(O)cc2)NC(=O)[C@@H](Cc2c(Br)[nH]c3ccccc23)N(C)C(=O)[C@H](C)NC(=O)[C@@H](C)C1 ?
yes (1)

Any idea what this test logged for CCC[CH2][Sn]1([CH2]CCC)[O]CC(COc2c(Cl)cc(Cl)cc2Cl)[O]1 (stereo not drawn) ?
yes (1)

Any idea what this test logged for COC1CC(C)C(OC)C2=CC(=O)C=C(NC(=O)/C(C)=C/C=C\C(C)C(OC(N)=O)/C(C)=C\C(C)C1OC)C2=O (stereo not drawn) ?
yes (1)

Any idea what this test logged for [Cl][Hg][c]1ccc(Cl)s1 ?
yes (1)

Any idea what this test logged for CC(C)c1oc(=O)cc2c1C(O)C1OC(=O)C3(C)C(O)C4OC4C2(C)C13 (stereo not drawn) ?
yes (1)

Values compiled from PubChem BioAssay (NCI).
